Assay target: human ether-à-go-go-related gene (hERG) potassium channel (human, UniProt Q12809)
Sequence (Q12809 whole entry, looked up): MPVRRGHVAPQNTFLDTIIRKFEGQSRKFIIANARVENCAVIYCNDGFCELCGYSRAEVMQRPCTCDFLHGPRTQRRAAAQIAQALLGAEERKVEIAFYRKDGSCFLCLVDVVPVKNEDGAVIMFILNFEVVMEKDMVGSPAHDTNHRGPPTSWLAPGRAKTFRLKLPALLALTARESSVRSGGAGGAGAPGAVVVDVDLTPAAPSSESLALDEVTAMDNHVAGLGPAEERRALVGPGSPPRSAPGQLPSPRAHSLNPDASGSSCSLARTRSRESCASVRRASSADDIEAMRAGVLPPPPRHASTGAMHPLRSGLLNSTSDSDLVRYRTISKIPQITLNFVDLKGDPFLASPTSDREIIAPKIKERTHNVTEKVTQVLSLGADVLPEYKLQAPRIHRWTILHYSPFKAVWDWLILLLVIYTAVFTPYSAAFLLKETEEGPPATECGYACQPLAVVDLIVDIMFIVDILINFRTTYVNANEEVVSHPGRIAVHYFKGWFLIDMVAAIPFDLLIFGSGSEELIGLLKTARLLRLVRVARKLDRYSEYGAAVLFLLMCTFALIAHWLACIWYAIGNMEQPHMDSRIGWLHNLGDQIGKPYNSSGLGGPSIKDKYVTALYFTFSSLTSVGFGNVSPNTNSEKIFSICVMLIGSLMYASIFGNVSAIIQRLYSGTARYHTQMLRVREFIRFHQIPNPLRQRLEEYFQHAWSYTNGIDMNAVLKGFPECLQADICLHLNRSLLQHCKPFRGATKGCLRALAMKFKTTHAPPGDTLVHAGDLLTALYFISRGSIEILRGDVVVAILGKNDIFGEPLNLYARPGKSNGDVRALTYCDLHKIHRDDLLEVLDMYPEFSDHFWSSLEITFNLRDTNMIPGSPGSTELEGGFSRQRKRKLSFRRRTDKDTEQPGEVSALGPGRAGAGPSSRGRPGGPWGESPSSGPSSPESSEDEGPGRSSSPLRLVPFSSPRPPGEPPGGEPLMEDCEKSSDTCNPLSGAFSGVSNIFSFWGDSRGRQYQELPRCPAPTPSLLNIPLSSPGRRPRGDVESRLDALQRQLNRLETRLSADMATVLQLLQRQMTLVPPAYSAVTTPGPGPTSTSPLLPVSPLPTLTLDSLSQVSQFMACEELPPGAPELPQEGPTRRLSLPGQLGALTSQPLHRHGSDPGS
Experiment notes: primary screen, population patch clamp on CHO cells stably expressing hERG; higher = less effect of the substance
Description: Briefly, Chinese hamster ovary (CHO) cells stably expressing the hERG channel were dislodged from tissue culture flasks and dispensed into PPC plates. […] During the recording, background leak currents were estimated by a 100 ms step to -80 mV from an initial holding potential of -70 mV and subtracted from the subsequent current measurement. The campaign was conducted in two phases using slight differences in recording protocol. […]
About 14,000 (4.5%) of roughly 310,000 compounds showed an effect of 50% or more. The effect is printed as a negative number. The sample as a whole holds a higher share of strong results than the screen did.
Value type: hERG current change (%, negative = inhibition) at 10uM (%)
Write the number in % without appending the unit.

Quote hERG current change (%, negative = inhibition) at 10uM reported for CCOC(=O)c1cc2c(=O)n3ccccc3nc2n(Cc2ccco2)c1=NC(=O)c1ccccc1OCC please. -50

Quote hERG current change (%, negative = inhibition) at 10uM reported for CCOC(=O)c1cc2c(=O)n3ccccc3nc2n(Cc2ccco2)c1=NC(=O)c1ccc(OC)cc1OC please. -54.2

Quote hERG current change (%, negative = inhibition) at 10uM reported for CCOC(=O)c1cc2c(=O)n3ccccc3nc2n(Cc2ccco2)c1=NC(=O)c1ccccc1OC please. -68.9

Quote hERG current change (%, negative = inhibition) at 10uM reported for CCOC(=O)C1CCN(S(=O)(=O)c2ccc(C)cc2)CC1 please. 3.36

Quote hERG current change (%, negative = inhibition) at 10uM reported for N/C(=N\OC(=O)CCc1ccccc1)c1cccc(Br)c1 please. 1.33

Quote hERG current change (%, negative = inhibition) at 10uM reported for COc1ccc(CCNC(=O)c2nonc2N)cc1 please. -15.8

Quote hERG current change (%, negative = inhibition) at 10uM reported for O=C(NCCc1ccccc1)C1CCN(S(=O)(=O)N2CCCCC2)CC1 please. 2.19

Quote hERG current change (%, negative = inhibition) at 10uM reported for CC(C)NC(=O)/C(=C/c1ccco1)c1ccccc1 please. -2.25

Quote hERG current change (%, negative = inhibition) at 10uM reported for CCc1ccccc1NC(=O)N1C2CCCC1CC(NC(C)=O)C2 (stereo not shown) please. 21.4

Quote hERG current change (%, negative = inhibition) at 10uM reported for CCOC(=O)c1cc2c(=O)n3ccccc3nc2n(Cc2ccco2)c1=NC(=O)c1cccnc1 please. -37.4

====

Kindly supply the reported hERG current change (%, negative = inhibition) at 10uM values for the records listed here.
Assay target: human ether-à-go-go-related gene (hERG) potassium channel (human);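 note: peak tail current of the secondary pulse compared with the same well before compound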
Experiment notes: primary screen, population patch clamp on CHO cells stably expressing hERG; higher = less effect of the substance
The campaign covered roughly 310,000 compounds. About 14,000 (4.5%) showed an effect of 50% or more. The effect is printed as a negative number. This is one part of a sample in which strong results are shown more often than they occur.
Record the result as a number with its unit.

Fill in hERG current change (%, negative = inhibition) at 10uM for COc1ccc(F)cc1C(=O)C1CCCN(Cc2cnc(C)s2)C1 (stereo not shown) tested with human ether-à-go-go-related gene (hERG) potassium channel (human). -21%

Fill in hERG current change (%, negative = inhibition) at 10uM for CS(=O)(=O)N(CC(=O)Nc1ccccc1C(=O)N1CCCC1)c1cccc([N+](=O)[O-])c1 tested with human ether-à-go-go-related gene (hERG) potassium channel (human). -13.2%

Fill in hERG current change (%, negative = inhibition) at 10uM for Cc1cc(C)n(-c2cc(C(C)(C)C)nc3c(-c4ccccc4)cnn23)n1 tested with human ether-à-go-go-related gene (hERG) potassium channel (human). 14.6%

Fill in hERG current change (%, negative = inhibition) at 10uM for COC(=O)c1ccc(CN2CCCC(C(=O)c3cc(F)ccc3OC)C2)cc1 (stereo not shown) tested with human ether-à-go-go-related gene (hERG) potassium channel (human). -68%

====

Assay target: human ether-à-go-go-related gene (hERG) potassium channel (human);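 note: peak tail current of the secondary pulse compared with the same well before compound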
Experiment notes: primary screen, population patch clamp on CHO cells stably expressing hERG; higher = less effect of the substance
Screen size: about 310,000 compounds; about 14,000 (4.5%) showed an effect of 50% or more. The effect is printed as a negative number. This excerpt belongs to a sample that is enriched for strong results.
Value type: hERG current change (%, negative = inhibition) at 10uM (%)
Write the number in % without appending the unit.

Quote hERG current change (%, negative = inhibition) at 10uM reported for COc1cc(NC(=O)Cc2c(C(=O)O)n(C)c3ccccc23)cc(OC)c1OC please. 35

Quote hERG current change (%, negative = inhibition) at 10uM reported for Fc1ccccc1N1CC(c2ccccc2)C(c2cccs2)=N1 (centres unmarked) please. 9.56

Quote hERG current change (%, negative = inhibition) at 10uM reported for CN(c1ccc(OCC(=O)OCC(=O)Nc2ccc(Br)cc2)cc1)S(=O)(=O)c1cccs1 please. -0.388

Quote hERG current change (%, negative = inhibition) at 10uM reported for Cc1ccccc1/C=N\NC(=O)c1ccc(Cn2cccn2)o1 please. 4.98

Quote hERG current change (%, negative = inhibition) at 10uM reported for O=C(N/N=C\c1ccc(Cl)s1)c1ccc(Cn2cccn2)o1 please. -57.2

Quote hERG current change (%, negative = inhibition) at 10uM reported for O=C(N/N=C\c1c(O)ccc2ccccc12)c1ccc(Cn2cccn2)o1 please. 9.2

Quote hERG current change (%, negative = inhibition) at 10uM reported for COC(=O)c1sccc1Oc1ccc(F)cc1[N+](=O)[O-] please. 1.74

Quote hERG current change (%, negative = inhibition) at 10uM reported for CS(=O)(=O)c1nc(S(=O)(=O)c2ccc(Cl)cc2)c(NCCCN2CCOCC2)s1 please. -46.8

Quote hERG current change (%, negative = inhibition) at 10uM reported for Cc1cccc(/C=C2\Sc3ccc(C(=O)N4CCOCC4)cc3N(C)C2=O)c1 please. -40.7

Quote hERG current change (%, negative = inhibition) at 10uM reported for COc1ccc(NC(=O)C2CCCN(C)C2)cc1OCC(C)C (centres unmarked) please. -1.9

Quote hERG current change (%, negative = inhibition) at 10uM reported for O=C(NCCCN1CCOCC1)c1cccc(S(=O)(=O)N2CCc3ccccc3C2)c1 please. -17

====

Assay target: human ether-à-go-go-related gene (hERG) potassium channel (human);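 note: peak tail current of the secondary pulse compared with the same well before compound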
Experiment notes: primary screen, population patch clamp on CHO cells stably expressing hERG; higher = less effect of the substance
Description: Briefly, Chinese hamster ovary (CHO) cells stably expressing the hERG channel were dislodged from tissue culture flasks and dispensed into PPC plates. […] During the recording, background leak currents were estimated by a 100 ms step to -80 mV from an initial holding potential of -70 mV and subtracted from the subsequent current measurement. The campaign was conducted in two phases using slight differences in recording protocol. […]
In all, about 310,000 compounds went through this assay and about 14,000 (4.5%) showed an effect of 50% or more. Effects have a minus sign here. What follows is part of a selection rich in strong results, with near analogues and random picks from the rest.
Value type: hERG current change (%, negative = inhibition) at 10uM (%)
Write the number in % without appending the unit.

Quote hERG current change (%, negative = inhibition) at 10uM reported for Cc1ccc(OCC(=O)c2ccc(Cl)s2)c([N+](=O)[O-])n1 please. 2.66

Quote hERG current change (%, negative = inhibition) at 10uM reported for CN(C)CCCn1c2c(c(SCC(=O)Nc3ccc4c(c3)OCO4)nc1=O)CCCC2 please. -39.7

Quote hERG current change (%, negative = inhibition) at 10uM reported for O=C(CCN1CCN(c2ccccn2)CC1)Nc1ccc(F)cc1 please. -42.5

Quote hERG current change (%, negative = inhibition) at 10uM reported for Cc1ccccc1N1CCN(CCC(=O)Nc2ccc(F)cc2)CC1 please. -67.5

Quote hERG current change (%, negative = inhibition) at 10uM reported for Cc1cc(C)[n+](Cc2ccccc2)cc1C(N)=O.[Cl-] please. 16.6

Quote hERG current change (%, negative = inhibition) at 10uM reported for CCN(CC)CCCn1c2c(c(SCC(=O)Nc3ccc(C)c(F)c3)nc1=O)CCC2 please. -64.5

Quote hERG current change (%, negative = inhibition) at 10uM reported for O=C1CSC(c2cccs2)N1c1ccccc1 (centres unmarked) please. 15

Quote hERG current change (%, negative = inhibition) at 10uM reported for c1ccc2sc(C3CCN(Cc4nnnn4Cc4ccc5c(c4)OCO5)CC3)nc2c1 please. -8.73

====

Assay target: human ether-à-go-go-related gene (hERG) potassium channel (human);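 note: peak tail current of the secondary pulse compared with the same well before compound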
Experiment notes: primary screen, population patch clamp on CHO cells stably expressing hERG; higher = less effect of the substance
Among all 310,000 compounds or so, about 14,000 (4.5%) showed an effect of 50% or more. Effects have a minus sign here. The full list was thinned out, with strong results kept by preference.
Value type: hERG current change (%, negative = inhibition) at 10uM (%)
Write the number in % without appending the unit.

Quote hERG current change (%, negative = inhibition) at 10uM reported for Cc1nc2ccccn2c1-c1csc(NCc2ccco2)n1 please. -74.6

Quote hERG current change (%, negative = inhibition) at 10uM reported for c1coc(CNc2nc(-c3ccncc3)cs2)c1 please. -3.17

Quote hERG current change (%, negative = inhibition) at 10uM reported for CCOc1cc(N2CCOCC2)c(OCC)cc1NC(=O)CN1C(=O)NC2(CCc3ccccc32)C1=O (stereo not shown) please. -44.5

Quote hERG current change (%, negative = inhibition) at 10uM reported for CCOc1cccc(C(=O)NC(=S)Nc2ccc(N3CCCC3)cc2)c1 please. 10.8

Quote hERG current change (%, negative = inhibition) at 10uM reported for CCOc1ccc(NC(=S)NCCCc2ccccc2)cc1 please. -12.4

Quote hERG current change (%, negative = inhibition) at 10uM reported for Cc1ccc2c(Cl)c(C(=O)NCc3cccnc3)sc2c1 please. -46.4

Quote hERG current change (%, negative = inhibition) at 10uM reported for Br.Cc1nc2ncccn2c1-c1csc(Nc2ccc(S(N)(=O)=O)cc2)n1 please. 0.703

Quote hERG current change (%, negative = inhibition) at 10uM reported for Cc1ccn2c(NCc3ccccc3)c(-c3cccs3)nc2c1 please. 12.5

Quote hERG current change (%, negative = inhibition) at 10uM reported for COc1cc(NC(=O)c2ccccc2)c(OC)cc1NC(=O)CN1C(=O)NC2(CCCCC2C)C1=O (stereo not shown) please. -49.8

Quote hERG current change (%, negative = inhibition) at 10uM reported for O=C(NCc1ccccc1Cl)c1ccc2c(=O)n(CCCN3CCCC3=O)c(=S)[nH]c2c1 please. -8.83

Quote hERG current change (%, negative = inhibition) at 10uM reported for Cc1ccc(CNC(=O)c2ccc3c(=O)n(CC4CCCO4)c(=S)[nH]c3c2)cc1 (stereo not shown) please. -9.6

Quote hERG current change (%, negative = inhibition) at 10uM reported for C=CCNc1nc(-c2c(C)nc3ncccn23)cs1 please. -0.737

Quote hERG current change (%, negative = inhibition) at 10uM reported for CCn1cc(C(=O)N2CC(C)CC(C)C2)c(=O)c2cc(S(=O)(=O)N3CCCC3)ccc21 (stereo not shown) please. 6.81

Quote hERG current change (%, negative = inhibition) at 10uM reported for O=C(NCc1ccccc1Cl)c1ccc2c(=O)n(CC3CCCO3)c(=S)[nH]c2c1 (stereo not shown) please. 10.1

Quote hERG current change (%, negative = inhibition) at 10uM reported for COc1cccc2cc(-c3csc(NC(=O)CCC(=O)NCCCN4CCC(C)CC4)n3)c(=O)oc12 please. -51.9

Quote hERG current change (%, negative = inhibition) at 10uM reported for CCCn1c(C)c(C(=O)OCC)c(O)c(-c2ccccc2)c1=O please. 19.5

Quote hERG current change (%, negative = inhibition) at 10uM reported for CCOc1cccc2cc(-c3csc(NC(=O)CCC(=O)NCCCN4CCC(C)CC4)n3)c(=O)oc12 please. -44.6

Quote hERG current change (%, negative = inhibition) at 10uM reported for CCOC(=O)c1sc(N(Cc2ccccc2)C(=O)CSc2nnc(C3CC3)n2N)nc1C please. -26.7

Quote hERG current change (%, negative = inhibition) at 10uM reported for Cc1nc(C)c(-c2csc(NCc3ccco3)n2)s1 please. -10.9

Quote hERG current change (%, negative = inhibition) at 10uM reported for CCOc1cc(N2CCOCC2)c(OCC)cc1NC(=O)CN1C(=O)NC2(CCCCCCC2)C1=O please. -63

Quote hERG current change (%, negative = inhibition) at 10uM reported for O=C(CSc1nnc(CN2CCCCC2)n1-c1ccccc1)c1ccc2c(c1)OCO2 please. -25.4

Quote hERG current change (%, negative = inhibition) at 10uM reported for CCCCc1nnc(NC(=O)CCc2ccccc2)s1 please. 19.3

Quote hERG current change (%, negative = inhibition) at 10uM reported for CCCN1CCN(CCCNC(=S)Nc2ccc(OC)cc2)CC1 please. -22.8

Quote hERG current change (%, negative = inhibition) at 10uM reported for c1coc(CNc2nc(-c3cccs3)cs2)c1 please. -9.83

Quote hERG current change (%, negative = inhibition) at 10uM reported for CCOc1cc(N2CCOCC2)c(OCC)cc1NC(=O)CN1C(=O)NC(C)(C2CC2)C1=O (stereo not shown) please. 26.8
